System: MDA-MB-435
Just give me one of these, please: label 1 for active, label 0 for inactive

query: Please share the test call associated with Nc1c(C(=O)c2cccc(C(O)(CO)CO)c2)cnn1-c1ccc(F)cc1 .
result: label 0

query: Please share the test call associated with COc1ccc(C2CC(c3ccc4ccccc4c3)=NN2/C=C2\SC(=S)N(NC(=O)Cc3ccccc3Nc3c(Cl)cccc3Cl)C2=O)cc1 (stereo unspecified) .
result: label 1

query: Please share the test call associated with COc1ccc(-c2cnc(SCC(=O)c3c(C)n(C)n(-c4ccccc4)c3=O)n2-c2ccc(OC)cc2)cc1 .
result: label 0

query: Please share the test call associated with CC/C=C\C[C@H](O)C/C=C1/C(=O)C=C[C@@H]1C/C=C\CCCC(=O)OCCS(=O)(=O)c1ccccc1 .
result: label 0

query: Please share the test call associated with COc1ccccc1CN=C1NC(=O)/C(=C/c2ccc3ncccc3c2)S1 .
result: label 0

query: Please share the test call associated with Oc1ccccc1/C=N/Nc1nc2ccccc2s1 .
result: label 0

query: Please share the test call associated with CC[C@]12C=CCN3CC[C@@]4(c5ccc(OC)cc5N(C)[C@H]4[C@@](O)(C(=O)OC)[C@@H]1OC(=O)CCCC[P+](c1ccccc1)(c1ccccc1)c1ccccc1)[C@@H]32 .
result: label 1

query: Please share the test call associated with CN(Cc1ccccc1)c1ncnc2ccc(Br)cc12 .
result: label 0

query: Please share the test call associated with Cc1cc(C)nc(NS(=O)(=O)c2ccc(Nc3nc4nc(NCc5ccccc5)nc(-c5ccc(O)cc5)c4c(=O)[nH]3)cc2)n1 .
result: label 0

query: Please share the test call associated with C/C(=N\NC(=O)c1cccc(S(=O)(=O)N2CCN(C)CC2)c1)c1cc(Cl)ccc1O .
result: label 0

query: Please share the test call associated with OCCNC(=S)Nc1ccc(-c2nc(N3C[C@H]4CC[C@@H](C3)O4)c3cccn3n2)cc1 .
result: label 1

The origin of these recorded values is PubChem BioAssay (NCI).
